tested on: transactivating tegument protein VP16 (Human herpesvirus 1); experiment: VP16 transactivation reporter inhibitors, counter-screen for SRC2 inhibitor project, cell-based, luminescence, single concentration (AID 652007); details: cell-based VP16 transactivation luciferase reporter, at 8.9 µM
Activity calls are given as the source filed them. Rule as the data show it: active = inhibition above about 36%; inactive = the rest.
Outcome field: choose from active, inactive

CC(=O)OC1CC2(O)C3CCC4CC(O)CCC4(C)C3CCC2(C)C1C1=CC(=O)OC1 (stereo not drawn) : active

Check the results log: what was the call for "C=C1C(=O)O[C@@H]2C[C@@H](C)[C@@H]3C=CC(=O)[C@@]3(C)[C@@H](OC(=O)CC(=O)O[C@H]3[C@@H]4C(=C)C(=O)O[C@@H]4C[C@@H](C)[C@@H]4C=CC(=O)[C@]43C)[C@H]12" ?
active

How did this test come out for "CCN1CCN(S(=O)(=O)c2ccc(Cl)c(C(=O)Nc3ccc(C(=O)N(CC)CC)cc3)c2)CC1" ?
inactive

Hi team, can someone confirm the assay call for N#Cc1cn(C2OC(CO)C(O)C2O)c2ncnc(N)c12 (stereo not drawn) ?
inactive

Would you mind telling me which call this test gave "COc1ccc2c3c1O[C@H]1C(=O)CC[C@H]4[C@@H](C2)N(C)CC[C@]314" ?
inactive

Hi team, can someone confirm the assay call for "COC(=O)C1=C(c2ccc(-c3ccccc3)c(F)c2)C[C@@H]2CC[C@H]1N2C(=O)N1CCCCC1" ?
inactive

For this compound, state the assay outcome: "C=C1C(=O)O[C@@H]2C[C@@H](C)[C@@H]3C=CC(=O)[C@@]3(C)[C@@H](O)[C@H]12"
active

Field: outcome | Entry: CC1=CC2OC3CC4OC(=O)C=CC=CC(C(C)O)OCC(O)C5(C)OC5C(=O)OCC2(CC1O)C4(C)C31CO1 (stereo not drawn)
active

###

experiment: StAR promoter reporter inhibitors, counter-screen for LRH-1 inverse agonist project, cell-based, luminescence, high throughput (AID 651611); details: StAR promoter luciferase reporter counterscreen, at 3.6 µM, hits give high values
Hi all, reminder that labels come from inhibition, split as band 1 = under 80%, band 2 = from 80% up to 90%, band 3 = 90% and over

O=c1[nH]c(O)c(N=Nc2ccc3c(c2)OCCO3)c(=O)[nH]1 : band 1

Lab note: which band did CC1CC(C)(O)CC(C(O)CC2CC(=O)NC(=O)C2)C1=O (stereo not drawn) land in?
band 3

Lab note: sort "CN(C)c1ccc(/C=C/C=C/c2sc3ccccc3[n+]2C)cc1" into the matching inhibition band.
band 1

Input "O=c1[nH]c2ccccc2n1C1CCN(Cc2ccc(-c3[nH]c4cc5ncnc5cc4nc3-c3ccccc3)cc2)CC1" ; output its category
band 1

Which bin should I file "CCN1/C(=C/C=C/C2=[N+](CC)c3ccccc3C2(C)C)C(C)(C)c2ccccc21" under?
band 2

Which class holds "Cc1ccc(-c2cc(-c3ccc(C)cc3)[n+](-c3ccccc3)c(-c3ccc(C)cc3)c2)cc1" ?
band 2

###

# inhibition annotations
assay: StAR promoter reporter inhibitors, counter-screen for LRH-1 inverse agonist project, cell-based, luminescence, high throughput (AID 651611); conditions: StAR promoter luciferase reporter counterscreen, at 3.6 µM, hits give high values
Calls of active or inactive are those of the source. No stated cut-off is given here; in the data, active means inhibition above about 28%; inactive means the rest.

Would you please look over these solved cases?
CC(=O)O[C@H]1C(=O)[C@@]2(C)C([C@H](OC(=O)c3ccccc3)[C@]3(O)C[C@H](OC(=O)[C@H](O)[C@@H](NC(=O)Cc4ccccc4)c4ccccc4)C(C)=C1C3(C)C)[C@]1(OC(C)=O)CO[C@@H]1C[C@@H]2O (some centres not stated) : 50.1% (active)
Clc1ccc(C[n+]2c(-c3ccccc3)cc(-c3ccccc3)cc2-c2ccccc2)cc1 : 70.8% (active)
CC(=O)OC1C2(CC3N4C(=O)C5(CO)SSC4(CC31O)C(=O)N5C)OC(C)C(C)(C)C2=O (configuration not stated) : 96.3% (active)
CCOC(=O)[C@]12Cc3cc(C)ccc3[C@H]1N(C1CCCCC1)C(=O)c1ccccc12 : 71.1% (active)
CC1OC(OC2C=C3CCC4C(CCC5(C)C(c6ccc(=O)oc6)CCC45O)C3(C)CC2)C(O)C(OC2OC(CO)C(O)C(O)C2O)C1O (configuration not stated) : 95.6% (active)
COC(=O)COc1cc(C)cc2oc(=O)c3c(c12)CCCC3 : 3.14% (inactive)

Could you now consider this next compound?
Recorded inhibition of CC(=O)OC(C)(C)/C=C/C(=O)C(C)(O)C1C(O)CC2(C)C3CC=C4C(CC(O)C(=O)C4(C)C)C3(C)C(=O)CC12C (configuration not stated) , please.
66% (active)

###

biological target: Steroidogenic factor 1 (Homo sapiens) (UniProt Q13285); assay: SF1 (NR5A1) inverse agonists, counter-screen for LRH-1 inverse agonist project, cell-based, luminescence, high throughput (AID 651614); details: cell-based SF1 luciferase reporter, at 3.6 µM, hits give high values;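 also: cells cotransfected with StAR promoter reporter and SF1 expression vector; 0% = vehicle on cells with receptor and 100% = vehicle on cells lacking receptor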
Sequence (Q13285 whole entry, looked up): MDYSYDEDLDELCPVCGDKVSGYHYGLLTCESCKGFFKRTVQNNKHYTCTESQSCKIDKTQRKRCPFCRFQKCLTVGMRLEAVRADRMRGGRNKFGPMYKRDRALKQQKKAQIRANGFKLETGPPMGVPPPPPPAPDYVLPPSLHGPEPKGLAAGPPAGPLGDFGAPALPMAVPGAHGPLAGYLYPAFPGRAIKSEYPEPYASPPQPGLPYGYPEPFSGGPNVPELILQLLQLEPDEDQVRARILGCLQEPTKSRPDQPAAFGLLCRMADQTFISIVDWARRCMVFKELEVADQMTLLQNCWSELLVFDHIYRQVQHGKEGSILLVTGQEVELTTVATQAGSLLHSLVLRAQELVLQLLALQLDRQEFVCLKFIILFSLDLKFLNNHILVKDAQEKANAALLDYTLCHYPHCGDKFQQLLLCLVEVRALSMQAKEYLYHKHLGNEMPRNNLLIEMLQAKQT
The entries below are paired with their reported inhibition.
Form entry: value (%) — number only.

Check out these entries, answers already filled in.
COc1cccc2c1C(=O)c1c(O)c3c(c(O)c1C2=O)CC(O)(C(C)=NO)CC3OC1CC(N)C(O)C(C)O1 (stereo not given) : 62.3
O=[N+]([O-])c1ccc(N(CCO)CCO)c2c1no[n+]2[O-] : 74.4
Cc1ccccc1-n1c(/C=C/c2ccccn2)nc2ccccc2c1=O : 52
CC[n+]1c(/C=C/N(C)c2ccccc2)sc2ccc(Cl)cc21 : 73.4
O=C1NC2C(O)C(O)C(O)C(O)C2c2cc3c(c(O)c21)OCO3 (stereo not given) : 97.7
CC(=O)OC[C@]12CCC(C)=C[C@H]1O[C@@H]1[C@H](O)[C@@H](OC(C)=O)[C@@]2(C)[C@]12CO2 : 98
CC1CC(C)(O)CC(C(O)CC2CC(=O)NC(=O)C2)C1=O (stereo not given) : 98.5
CC(N)C(=O)NC1C2C(=C(O)CC(O)C2O)C(=O)OC1(C)C(Cl)Cl (stereo not given) : 98.5
C[C@H]1C[C@@H](C)C(=O)[C@@H]([C@H](O)CC2CC(=O)NC(=O)C2)C1 : 97.9
COc1ccc2c(c1)/C(=C/c1cnc[nH]1)C(=O)N2 : 72.9

Provide the documented inhibition with Steroidogenic factor 1 (Homo sapiens) (UniProt Q13285) as the system for "CCN(CC)C(=O)COc1cc(C)cc2oc(=O)c3c(c12)CCCC3"
59

Record lookup: for Steroidogenic factor 1 (Homo sapiens) (UniProt Q13285), what inhibition belongs to "CN(C)c1ccc(-[n+]2c(-c3ccccc3)cc(-c3ccccc3)cc2-c2ccccc2)cc1" ?
91.6

Write down the reported inhibition of "O=c1[nH]c(O)c(N=Nc2ccc3c(c2)OCCO3)c(=O)[nH]1" , test system: Steroidogenic factor 1 (Homo sapiens) (UniProt Q13285).
42.1

###

test system: transactivating tegument protein VP16 (Human herpesvirus 1), Gal4-VP16 luciferase reporter; assay: VP16 transactivation inhibitors, counter-screen for SRC3 inhibitor project, cell-based, luminescence, high throughput (AID 588794); conditions: mammalian cells, VP16-driven luciferase reporter luminescence; at 3.6 µM; hits give high values
endpointName: inhibition (%)
Reply with just the number (in %).

Observe how each entry below is paired with its result.
CC(C)(C)c1cc(C=C(C#N)C#N)cc(C(C)(C)C)c1O : 82.4
Cc1ccc(N=C(/N=C(\N)N[N+](=O)[O-])Nc2ccc(C)cc2)cc1 : 1.74
O=c1[nH]c2ccccc2n1C1CCN(C(c2ccccc2OC(F)(F)F)c2nnnn2Cc2ccccc2)CC1 (centres undefined) : 2.54
COc1ccc(-n2nnnc2C(c2cccc3ccccc23)N2CCC(n3c(=O)[nH]c4ccccc43)CC2)cc1 (centres undefined) : 4.21

What value of measured inhibition is listed for O=c1[nH]c2ccccc2n1C1CCN(C(c2ccnc3ccccc23)c2nnnn2-c2ccc3c(c2)OCCO3)CC1 (centres undefined) ?
6.76

Using the record for "C=C1C(=O)O[C@@H]2C[C@@H](C)[C@@H]3C=CC(=O)[C@@]3(C)[C@@H](O)[C@H]12" , report its inhibition.
92.5

Give the measured inhibition of COC(=O)C12OCC34C(CC5C(C)=C(O)C(=O)CC5(C)C3C(O)C1O)OC(=O)C(OC(=O)/C=C(\C)C(C)C)C24 (centres undefined) .
97.6

Which inhibition value belongs to "COC(=O)C[C@]1(C(=O)OC)CN(C#N)N(c2ccc(Cl)cc2)C12c1ccccc1-c1ccccc12" ?
63.2

Given the compound O=c1[nH]c2ccccc2n1C1CCN(C(c2nnnn2-c2ccc3c(c2)OCCO3)C2CC2)CC1 (centres undefined) , what is its reported inhibition?
23.5

###

target: Photoreceptor-specific nuclear receptor (Homo sapiens); test: NR2E3 agonist confirmation in cells, cell-based, luminescence, CHO-S two-hybrid (AID 624378); conditions: CHO-S mammalian two-hybrid NR2E3-NCOR, luciferase luminescence; at 3.98 µM;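 also: 0% = DMSO in NR2E3 cells and 100% = DMSO in cells lacking NR2E3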
This is one part of the list. Activity calls are given as the source filed them.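 Rule for the calls: active = average inhibition above a cutoff equal to the mean inhibition of all tested compounds plus one SD (cut at about 70% in these data); inactive = the rest.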
Reply using exactly one outcome from Y = active, N = inactive

// known answers, use as guide
CCCCCCN=C(CC)c1c(O)n(CCCC)c(=O)[nH]c1=O : Y
O=c1[nH]c2ccccc2n1C1CCN(C(c2ccccc2)c2nnnn2Cc2ccccc2)CC1 (centres undefined) : N
CC(=O)OC1C2(CC3N4C(=O)C5(CO)SSC4(CC31O)C(=O)N5C)OC(C)C(C)(C)C2=O (centres undefined) : Y

Now take the following compound into account.
GET /call?item= "CCCCCCCCCCCCn1ccc(=N)cc1" returns the recorded outcome of this test.
Y
